target: mP2Y14R (Mus musculus); test: cell-based; settings: read-out: mP2Y14R, IC50; Table 6; whole mP2Y14R-HEK cells, 200 nM of 3, mean ± SEM, n = 3-6
Sequence (Q9ESG6 whole entry): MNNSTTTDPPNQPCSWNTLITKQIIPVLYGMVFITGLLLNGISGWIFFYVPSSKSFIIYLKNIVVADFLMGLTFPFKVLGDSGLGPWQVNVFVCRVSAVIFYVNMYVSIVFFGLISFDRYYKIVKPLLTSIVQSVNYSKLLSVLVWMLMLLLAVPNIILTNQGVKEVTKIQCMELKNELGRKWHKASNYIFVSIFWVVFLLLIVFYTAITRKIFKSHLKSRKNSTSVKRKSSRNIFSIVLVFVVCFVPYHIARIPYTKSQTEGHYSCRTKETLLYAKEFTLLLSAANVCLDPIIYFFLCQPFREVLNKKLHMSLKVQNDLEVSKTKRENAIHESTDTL
ATTRIBUTE MEASURED: pIC50
// returns pIC50 (minus log10 of molar concentration), number only

| MOLECULE | TARGET SYSTEM | MEASURED VALUE |
| --- | --- | --- |
| O=C(O)c1cc(-c2ccc([C@@H]3C[C@@H]4C[C@H]3NC4=O)cc2)c2ccc(-c3ccc(C(F)(F)F)cc3)cc2c1 [Compound 121] | mP2Y14R (Mus musculus) | 7.37 |
| O=C(O)c1cc(-c2ccc([C@H]3C[C@H]4C[C@@H]3CN4)cc2)c2ccc(-c3ccc(C(F)(F)F)cc3)cc2c1 [Compound 114] | mP2Y14R (Mus musculus) | 7.47 |

Query molecule follows.
For reference, reported pIC50 for N[C@@H]1C[C@H](C(=O)O)[C@@H](c2ccc(-c3cc(C(=O)O)cc4cc(-c5ccc(C(F)(F)F)cc5)ccc34)cc2)C1 [Compound 138] stands at 7.39

###

assay: HPLC-based lipophilicity (Log D7.4); settings: pH 7.4
# Lookup of reported chromatographic logD keyed by entry
Lab note: jot down the number only; don't add units.

| MOLECULE | chromatographic logD |
| --- | --- |
| O=C(O)c1cc(-c2ccc([C@@H]3CCN[C@H]4C[C@H]43)cc2)c2ccc(-c3ccc(C(F)(F)F)cc3)cc2c1 (racemic) | 2.59 |

For reference, reported chromatographic logD for O=C(O)c1cc(-c2ccc(C3(O)C4CCC3CN(Cc3ccccc3)C4)cc2)c2ccc(-c3ccc(C(F)(F)F)cc3)cc2c1 (mixture of isomers) stands at 3.26

For reference, reported chromatographic logD for O=C(O)c1cc(-c2ccc([C@H]3C[C@H]4C[C@@H]3CN4)cc2)c2ccc(-c3ccc(C(F)(F)F)cc3)cc2c1 (racemic) [Compound 112] stands at 1.95

###

assay: HPLC-based lipophilicity (Log D7.4); settings: pH 7.4
# Lookup of reported chromatographic logD keyed by entry
Lab note: jot down the number only; don't add units.

// below: answered compounds
| COMPOUND | chromatographic logD |
| --- | --- |
| O=C(O)c1cc(-c2ccc([C@@]34CCNC[C@@H]3C4)cc2)c2ccc(-c3ccc(C(F)(F)F)cc3)cc2c1 (racemic) | 2.44 |
| N[C@H]1C[C@@H](CO)[C@H](c2ccc(-c3cc(C(=O)O)cc4cc(-c5ccc(C(F)(F)F)cc5)ccc34)cc2)C1 | 0.957 |

Query compound follows.
For reference, reported chromatographic logD for CC(=O)N1C[C@H]2C[C@@H]1C[C@@H]2c1ccc(-c2cc(C(=O)O)cc3cc(-c4ccc(C(F)(F)F)cc4)ccc23)cc1 (racemic) [Compound 113] stands at 0.921
